System: Staphylococcus aureus
method_summary: Antibacterial activity against methicillin-resistant Staphylococcus aureus USA200 NRS383 clinical isolate preincubated followed by bacterial subculturing for 2 weeks
Assay type: functional
Calls of active or inactive are those of the source. The rule behind the calls is not given here.
property: Activity

Worked cases, answers included:
INSERT INTO assay_data (smiles_entry, property, result) VALUES
  ('CCCCCOc1ccc(NC(=O)Nc2ccc(/C(C)=N/NC(=N)N)cc2)cc1', 'Activity', 'Active'),
  ('CCCCCCCOc1ccc(NC(=O)Nc2ccc(/C(C)=N/NC(=N)N)cc2)cc1', 'Activity', 'Active'),
  ('CCCCCCCCCOc1ccc(NC(=O)Nc2ccc(/C(C)=N/NC(=N)N)cc2)cc1', 'Activity', 'Active'),
  ('C/C(=N\NC(=N)N)c1ccc(NC(=O)Nc2ccc(OCCCC(C)C)cc2)cc1', 'Activity', 'Active'),
  ('C/C(=N\NC(=N)N)c1ccc(NC(=O)Nc2ccc(OCc3ccccc3)cc2)cc1', 'Activity', 'Active');

Proceeding to the next compound to report its Activity.
Request: Activity lookup needed for CCC(CC)COc1ccc(NC(=O)Nc2ccc(/C(C)=N/NC(=N)N)cc2)cc1 , thanks.
Response: Active

###

System: Staphylococcus aureus
method_summary: Antibacterial activity against methicillin-resistant Staphylococcus aureus USA200 NRS383 clinical isolate preincubated followed by bacterial subculturing for 2 weeks
Assay type: functional
Activity calls are given as the source filed them. The rule behind the calls is not given here.
property: Activity

Worked cases, answers included:
INSERT INTO measurements (smiles_entry, result) VALUES
  ('C/C(=N\NC(=N)N)c1ccc(NC(=O)Nc2ccc(OC3CCCC3)cc2)cc1', 'Active'),
  ('CCCCCCOc1ccc(NC(=O)Nc2ccc(/C(C)=N/NC(=N)N)cc2)cc1', 'Active'),
  ('CCCOc1ccc(NC(=O)Nc2ccc(/C(C)=N/NC(=N)N)cc2)cc1', 'Active'),
  ('C/C(=N\NC(=N)N)c1ccc(NC(=O)Nc2ccc(OCC3CCC3)cc2)cc1', 'Active'),
  ('C/C(=N\NC(=N)N)c1ccc(NC(=O)Nc2ccc(OCC(C)C)cc2)cc1', 'Active'),
  ('C/C(=N\NC(=N)N)c1ccc(NC(=O)Nc2ccc(OCCC(C)C)cc2)cc1', 'Active'),
  ('CCCCCCCCOc1ccc(NC(=O)Nc2ccc(/C(C)=N/NC(=N)N)cc2)cc1', 'Active'),
  ('CCCCOc1ccc(NC(=O)Nc2ccc(/C(C)=N/NC(=N)N)cc2)cc1', 'Active'),
  ('C/C(=N\NC(=N)N)c1ccc(NC(=O)Nc2ccc(C(C)(C)C)cc2)cc1', 'Active');

Proceeding to the next compound to report its Activity.
Request: Activity lookup needed for C/C(=N\NC(=N)N)c1ccc(NC(=O)Nc2ccc(OC3CCCCCC3)cc2)cc1 , thanks.
Response: Active

###

method_summary: Half life in naive Sprague-Dawley rat at 50 mg/kg ,po administered via gavage by LC-MS/MS method
Type: ADME, organism-based
setup_conditions: in vivo
property: half-life (h)
A number alone suffices; assume h.

Request: half-life lookup needed for C/C(=N\NC(=N)N)c1ccc(NC(=O)Nc2ccc(OC3CCCCCC3)cc2)cc1 , thanks.
Response: 16

###

Tested on: Staphylococcus aureus
method_summary: Antibacterial activity against methicillin-resistant Staphylococcus aureus USA100 NRS382 clinical isolate after 20 hrs by broth microdilution method
Assay type: functional
setup_conditions: USA100 NRS382, 20 h
Field: label. Allowed values: condition met (MIC < 20 µg/mL) or condition not met (MIC >= 20 µg/mL).

Before answering, review these 5 worked examples.
INSERT INTO assay_data (smiles_entry, target, class_label) VALUES
  ('C/C(=N\NC(=N)N)c1ccc(NC(=O)Nc2ccc(OC3CCCC3)cc2)cc1', 'Staphylococcus aureus', 'condition not met'),
  ('C/C(=N\NC(=N)N)c1ccc(NC(=O)Nc2ccc(OCc3ccccc3)cc2)cc1', 'Staphylococcus aureus', 'condition met'),
  ('CCCCCCOc1ccc(NC(=O)Nc2ccc(/C(C)=N/NC(=N)N)cc2)cc1', 'Staphylococcus aureus', 'condition met'),
  ('C/C(=N\NC(=N)N)c1ccc(NC(=O)Nc2ccc(OCCCC(C)C)cc2)cc1', 'Staphylococcus aureus', 'condition met'),
  ('C/C(=N\NC(=N)N)c1ccc(NC(=O)Nc2ccc(OCCC(C)C)cc2)cc1', 'Staphylococcus aureus', 'condition met');

Then there is this compound:
Request: Does this compound meet the criterion MIC < 20 µg/mL? C/C(=N\NC(=N)N)c1ccc(NC(=O)Nc2ccc(C(C)(C)C)cc2)cc1
Response: condition not met
